molecular target: human B2 bradykinin receptors (Homo sapiens, UniProt P30411); construct: purchased Receptor Biology, Inc. (Baltimore, MD); host or cells: CHO-K1 cells transfected with the human B2 receptor (membranes); assay: Bradykinin B2 (BK2) Receptor Binding Assay; conditions: membranes of CHO-K1 cells transfected with human B2 bradykinin receptors; ~0.25 nM [3H]NPC17731; 60 min at 25°C
Flag rule - Ki less than 500 nM flags Fulfilled; the remaining entries get Not fulfilled.

| COMPOUND | ASSIGNED LABEL |
| --- | --- |
| Cc1ccc2cccc(OCc3c(Cl)ccc(N(C)C(=O)Cc4ccc(C(=O)CN5CCCC5)n4C)c3Cl)c2n1 [Compound 37] | Not fulfilled |
| COc1ccc(-c2ccc(CC(=O)N(C)c3ccc(C)c(COc4cccc5ccc(C)nc45)c3C)n2C)cc1 [Compound 96] | Not fulfilled |
| Cc1ccc2cccc(OCc3c(Cl)ccc(N(C)C(=O)Cc4ccc(C(=O)c5ccc([N+](=O)[O-])cc5)n4C)c3Cl)c2n1 [Compound 63] | Fulfilled |
| Cc1ccc2cccc(OCc3c(Cl)ccc(N(C)C(=O)Cc4ccc(C(=O)c5cccc(C#N)c5)n4C)c3Cl)c2n1 [Compound 44] | Not fulfilled |
| Cc1ccc2cccc(OCc3c(C)ccc(N(C)C(=O)Cc4ccc(C(=O)c5ccc(Cl)nc5)n4C)c3C)c2n1 [Compound 77] | Fulfilled |

* * *

Target: human B2 bradykinin receptors (Homo sapiens, UniProt P30411)
Construct: purchased Receptor Biology, Inc. (Baltimore, MD); host or cells: CHO-K1 cells transfected with the human B2 receptor (membranes)
Sequence (P30411 1-391): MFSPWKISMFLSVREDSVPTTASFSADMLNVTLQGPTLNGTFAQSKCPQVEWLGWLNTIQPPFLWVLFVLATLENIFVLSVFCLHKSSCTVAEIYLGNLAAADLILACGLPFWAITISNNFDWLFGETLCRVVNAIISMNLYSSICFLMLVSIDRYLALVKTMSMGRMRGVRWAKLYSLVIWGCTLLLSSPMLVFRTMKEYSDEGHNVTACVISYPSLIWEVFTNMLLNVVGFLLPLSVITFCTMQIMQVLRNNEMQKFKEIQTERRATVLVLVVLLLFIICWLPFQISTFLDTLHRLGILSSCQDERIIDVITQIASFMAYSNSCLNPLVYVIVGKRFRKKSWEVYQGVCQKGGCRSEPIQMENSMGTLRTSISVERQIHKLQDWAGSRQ
Test: Bradykinin B2 (BK2) Receptor Binding Assay
Conditions: membranes of CHO-K1 cells transfected with human B2 bradykinin receptors; ~0.25 nM [3H]NPC17731; 60 min at 25°C
As shown below, each of these compounds has a reported Ki value.
ASSAY ENDPOINT: Ki (nM)

| COMPOUND | SCALE UNIT | RESULT VALUE |
| --- | --- | --- |
| Cc1ccc2cccc(OCc3c(Cl)ccc(N(C)C(=O)Cc4ccc(C(=O)c5ccc(N)cc5)n4C)c3Cl)c2n1 [Compound 56] | nM | 406 |
| CC(=O)Nc1ccccc1C(=O)c1ccc(CC(=O)N(C)c2ccc(Cl)c(COc3cccc4ccc(C)nc34)c2Cl)n1C [Compound 36] | nM | 869 |
| CCN(C(=O)Cc1ccc(C(=O)c2ccc(C#N)cc2)n1C)c1ccc(Cl)c(COc2cccc3ccc(C)nc23)c1Cl [Compound 18] | nM | 55 |
| Cc1ccc2cccc(OCc3c(Cl)ccc(N(C)C(=O)Cc4cc(C(=O)c5ccc(C#N)cc5)n(C)c4)c3Cl)c2n1 [Compound 4] | nM | 1350 |
| Cc1ccc2cccc(OCc3c(Cl)ccc(N(C)C(=O)Cc4ccc(C(=O)c5ccc(C(=O)N(C)C)cc5)n4C)c3Cl)c2n1 [Compound 62] | nM | 204 |
| Cc1ccc2cccc(OCc3c(Cl)ccc(N(C)C(=O)Cc4ccc(C(=O)C5CCCCC5)n4C)c3Cl)c2n1 [Compound 30] | nM | 1790 |
| Cc1ccc2cccc(OCc3cccc(N(C)C(=O)Cc4ccc(C(=O)c5cccc(C#N)c5)n4C)c3Cl)c2n1 [Compound 116] | nM | 17600 |

* * *

Target: human B2 bradykinin receptors (Homo sapiens, UniProt P30411)
Construct: purchased Receptor Biology, Inc. (Baltimore, MD); host or cells: CHO-K1 cells transfected with the human B2 receptor (membranes)
Assay: Bradykinin B2 (BK2) Receptor Binding Assay
Conditions: membranes of CHO-K1 cells transfected with human B2 bradykinin receptors; ~0.25 nM [3H]NPC17731; 60 min at 25°C
Experimental: Cell membranes of CHO-K1 cells transfected with human B2 bradykinin receptors (CH)-hB2) were purchased from Receptor Biology, Inc. (Baltimore,MD). […] The data were used to calculate either the % inhibition compared to control binding (when only a single concentration of test compound was evaluated) or a Ki value (when a range of concentrations were tested). […] Kd and Ki values were calculated using GraphPad PRISM data analysis program.
pKi: −log10 of the molar value.

| COMPOUND | pKi |
| --- | --- |
| Cc1ccc2cccc(OCc3c(Cl)ccc(N(C)C(=O)Cc4ccc(C(=O)c5ccc(S(C)(=O)=O)cc5)n4C)c3Cl)c2n1 [Compound 75] | 7.33 |
| Cc1ccc2cccc(OCc3c(C)ccc(N(C)C(=O)CCc4ccc(C(=O)c5ccc(Cl)nc5)n4C)c3C)c2n1 [Compound 88] | 6.90 |
| Cc1ccc2cccc(OCc3c(Cl)ccc(N(C)C(=O)CCc4ccc(C(=O)c5ccccc5)s4)c3Cl)c2n1 [Compound 105] | 6.05 |
| COc1ccc(C(=O)c2ccc(CCC(=O)N(C)c3ccc(Cl)c(COc4cccc5ccc(C)nc45)c3Cl)s2)cc1 [Compound 107] | 6.49 |

* * *

target: CHO-hB2 cell membranes (Homo sapiens); construct: purchased Receptor Biology, Inc. (Baltimore, MD); host or cells: CHO-hB2 cells (membranes); experiment: [35S]GTPγS Binding Assay in CHO-hB2 Cell Membranes; type: biochemical; details: word part of the cell; effect on bradykinin-stimulated [35S]GTPγS binding

| MOLECULE | TESTED SYSTEM | Functional Activity |
| --- | --- | --- |
| Cc1ccc2cccc(OCc3c(Cl)cc(Cl)c(N(C)C(=O)Cc4ccc(C(=O)c5ccc(Cl)nc5)n4C)c3Cl)c2n1 | CHO-hB2 cell membranes (Homo sapiens) | Antagonist |
| Cc1ccc2cccc(OCc3c(Cl)ccc(N(C)C(=O)Cc4cc(C(=O)c5ccc(C#N)cc5)n(C)c4)c3Cl)c2n1 | CHO-hB2 cell membranes (Homo sapiens) | Antagonist |
| Cc1ccc2cccc(OCc3c(Cl)ccc(N(C)C(=O)CCc4ccc(C(=O)c5ccc(Cl)nc5)n4C)c3Cl)c2n1 | CHO-hB2 cell membranes (Homo sapiens) | Antagonist |
| Cc1ccc2cccc(OCc3c(Cl)ccc(N(C)C(=O)Cc4ccc(C(=O)c5ccc(C#N)nc5)n4C)c3Cl)c2n1 | CHO-hB2 cell membranes (Homo sapiens) | Antagonist |
| Cc1ccc2cccc(OCc3c(Cl)ccc(N(C)C(=O)Cc4ccc(C(=O)c5ccc(C(=O)N(C)C)cc5)n4C)c3Cl)c2n1 | CHO-hB2 cell membranes (Homo sapiens) | Antagonist |
| Cc1ccc2cccc(OCc3c(C)ccc(N(C)C(=O)Cc4ccc(C(=O)c5ccc(C#N)cc5)n4C)c3C)c2n1 | CHO-hB2 cell membranes (Homo sapiens) | Antagonist |

* * *

molecular target: CHO-hB2 cell membranes (Homo sapiens); construct: purchased Receptor Biology, Inc. (Baltimore, MD); host or cells: CHO-hB2 cells (membranes); assay: [35S]GTPγS Binding Assay in CHO-hB2 Cell Membranes; type: biochemical; conditions: number in parentheses; bradykinin-stimulated [35S]GTPγS binding; test concentration not given
The label depends only on Functional Activity (% Basal): label 1 if it is at least 40 % Basal, label 0 if it is smaller.

| COMPOUND | TESTED SYSTEM | ASSIGNED LABEL |
| --- | --- | --- |
| Cc1ccc2cccc(OCc3c(Cl)cc(Cl)c(N(C)C(=O)Cc4ccc(C(=O)c5ccc(Cl)nc5)n4C)c3Cl)c2n1 [Compound 117] | CHO-hB2 cell membranes (Homo sapiens) | label 0 |
| CC(=O)Nc1ccc(C(=O)c2ccc(CC(=O)N(C)c3ccc(Cl)c(COc4cccc5ccc(C)nc45)c3Cl)n2C)cc1 [Compound 74] | CHO-hB2 cell membranes (Homo sapiens) | label 0 |
| CCN(C(=O)Cc1ccc(C(=O)c2ccc(C#N)cc2)n1C)c1ccc(C)c(COc2cccc3ccc(C)nc23)c1C [Compound 16] | CHO-hB2 cell membranes (Homo sapiens) | label 0 |
| Cc1ccc2cccc(OCc3c(Cl)ccc(N(C)C(=O)Cc4cc(C(=O)c5ccc(C#N)cc5)n(C)c4)c3Cl)c2n1 [Compound 4] | CHO-hB2 cell membranes (Homo sapiens) | label 0 |
| Cc1ccc2cccc(OCc3c(Cl)ccc(N(C)C(=O)Cc4ccc(C(=O)c5cccs5)n4C)c3Cl)c2n1 [Compound 61] | CHO-hB2 cell membranes (Homo sapiens) | label 0 |
| Cc1ccc2cccc(OCc3c(Cl)ccc(N(C)C(=O)Cc4ccc(C(=O)c5ccc(S(C)(=O)=O)cc5)n4C)c3Cl)c2n1 [Compound 75] | CHO-hB2 cell membranes (Homo sapiens) | label 1 |
| Cc1ccc2cccc(OCc3c(Cl)ccc(N(C)C(=O)Cc4ccc(C(=O)c5ccc(C#N)cc5)n4CCC(C)C)c3Cl)c2n1 [Compound 13] | CHO-hB2 cell membranes (Homo sapiens) | label 0 |
| CCCCn1c(CC(=O)N(C)c2ccc(Cl)c(COc3cccc4ccc(C)nc34)c2Cl)ccc1C(=O)c1ccc(C#N)cc1 [Compound 10] | CHO-hB2 cell membranes (Homo sapiens) | label 0 |
| Cc1ccc2cccc(OCc3c(C)ccc(N(C)C(=O)CCc4ccc(C(=O)c5cccs5)n4C)c3C)c2n1 [Compound 80] | CHO-hB2 cell membranes (Homo sapiens) | label 0 |
| CCN(C(=O)Cc1ccc(C(=O)c2ccc(Cl)nc2)n1C)c1ccc(Cl)c(COc2cccc3ccc(C)nc23)c1Cl [Compound 17] | CHO-hB2 cell membranes (Homo sapiens) | label 0 |
| Cc1ccc2cccc(OCc3c(Cl)ccc(N(C)C(=O)Cc4ccc(C(=O)c5ccc(Cl)nc5)n4C)c3Cl)c2n1 [Compound 67] | CHO-hB2 cell membranes (Homo sapiens) | label 1 |
| CC(=O)Nc1cccc(C(=O)c2ccc(CC(=O)N(C)c3ccc(Cl)c(COc4cccc5ccc(C)nc45)c3Cl)n2C)c1 [Compound 72] | CHO-hB2 cell membranes (Homo sapiens) | label 1 |
| Cc1ccc2cccc(OCc3c(Cl)ccc(N(C)C(=O)Cc4ccc(C(=O)c5ccc(C#N)nc5)n4C)c3Cl)c2n1 [Compound 71] | CHO-hB2 cell membranes (Homo sapiens) | label 1 |
| Cc1ccc2cccc(OCc3c(Cl)ccc(N(C)C(=O)Cc4ccc(C(=O)c5ccc(C#N)cc5)n4CC(C)C)c3Cl)c2n1 [Compound 12] | CHO-hB2 cell membranes (Homo sapiens) | label 0 |
